# Tested on: P. falciparum stage V male gametocytes (male gamete formation)
# assay_info: P. falciparum dual gamete formation assay (Pf DGFA), male readout (exflagellation), 48 h carry-over format
# Assay type: cell-based, Plasmodium falciparum NF54
# details: Plasmodium falciparum, 48 h, dose response retest of primary hits, 48 h incubation; read-out: Male IC50
pIC50: −log10 of the molar value.

>  <compound>
Cc1ccc(S(=O)(=O)NCC2(O)CCOc3ccccc32)s1 (centres unmarked) [DDD01028074]

>  <pIC50>
6.66

$$$$
>  <compound>
COc1ccc(NC(=O)Cn2nc(C)c(C(C)=O)c2C)cc1 [DDD01027600]

>  <pIC50>
5.91

$$$$
>  <compound>
O=C(CN1CC(c2nc(C3CC3)no2)C1)N1CCOCC1.O=C(O)C(=O)O [DDD01027902]

>  <pIC50>
5.93

$$$$
>  <compound>
O=S(=O)(NCC1(O)CCOc2ccccc21)c1ccc(Br)s1 (centres unmarked) [DDD01035881]

>  <pIC50>
6.27

$$$$
>  <compound>
O=S(=O)(NCC1(O)CCOc2ccccc21)c1cccs1 (centres unmarked) [DDD01035879]

>  <pIC50>
5.96

$$$$

###

# assay_info: Stability analysis of DDD599/BPCA (pH buffers, simulated gastric fluid, glutathione)
# Format: physicochemical
# details: Simulated Gastric Fluid; SGF

>  <compound>
O=C(CCl)Nc1ccc(Br)cc1 [BPCA, N-(4-bromophenyl)-2-chloroacetamide]

>  <measure_unit>
%

>  <remaining at 24 h>
98

$$$$

###

# Tested on: P. berghei strain CTRPpGFP early mosquito stage (ookinete) development
# assay_info: P. berghei ookinete development assay (Pb ODA)
# Type: cell-based, Plasmodium berghei
# details: Plasmodium berghei; 24h incubation
pIC50: −log10 of the molar value.
The following molecules are shown together with reported pIC50 values.
endpoint_label: pIC50

>  <molecule>
Cc1ccc(CN(c2cc(C)nc3nc(C(F)(F)F)nn23)C2CC2)cc1

>  <target_system>
P. berghei strain CTRPpGFP early mosquito stage (ookinete) development

>  <experimental_value>
< 4.90

$$$$
>  <molecule>
Cc1cccc(NC(=O)c2cccc(OCc3nnnn3C)c2)n1

>  <target_system>
P. berghei strain CTRPpGFP early mosquito stage (ookinete) development

>  <experimental_value>
< 4.90

$$$$
>  <molecule>
CC(c1cccs1)N(C)Cc1cnc(-c2ccccn2)nc1 (stereo not drawn)

>  <target_system>
P. berghei strain CTRPpGFP early mosquito stage (ookinete) development

>  <experimental_value>
< 4.60

$$$$
>  <molecule>
CC(c1ccco1)N(C(=O)CNc1ccc(C#N)cc1)C1CC1 (stereo not drawn)

>  <target_system>
P. berghei strain CTRPpGFP early mosquito stage (ookinete) development

>  <experimental_value>
< 4.90

$$$$
>  <molecule>
O=S(=O)(NCC1(O)CCOc2ccccc21)c1ccc(Cl)s1 (stereo not drawn)

>  <target_system>
P. berghei strain CTRPpGFP early mosquito stage (ookinete) development

>  <experimental_value>
6.47

$$$$
>  <molecule>
c1cnnc(N2CCCC2CNc2ncnc3sccc23)c1 (stereo not drawn)

>  <target_system>
P. berghei strain CTRPpGFP early mosquito stage (ookinete) development

>  <experimental_value>
< 4.90

$$$$

###

# assay_info: Pharmacokinetic analysis in naïve mice
# Assay type: in vivo, BALB/c mice
# details: mouse, plasma, intraperitoneal; 50 mg kg^−1, BALB/c mice, n = 3

>  <compound>
O=S(=O)(NCC1(O)CCOc2ccccc21)c1ccc(Br)s1 (stereo not shown) [DDD01035881]

>  <measure_unit>
min

>  <Tmax>
4.98

$$$$

###

# Test system: P. berghei strain CTRPpGFP early mosquito stage (ookinete) development
# assay_info: P. berghei ookinete development assay (Pb ODA)
# Format: cell-based, Plasmodium berghei
# details: Plasmodium berghei; 24h incubation
# Procedure: All mouse procedures were performed in accordance with the UK Animals (Scientific Procedures) Act (PPL 70/7185) and approved by the Imperial College Animal Welfare and Ethical Review Body (AWERB). […] Ookinete production was imaged by fluorescence microscopy of GFP expression under the ookinete-specific CTRP promoter using a Nikon Ti-E widefield microscope and ×10 objective. […]
pIC50: −log10 of the molar value.

>  <molecule>
CC(NCC1CCN(CCO)CC1)c1ccc(OC(F)(F)F)cc1 (centres unmarked) [DDD01073716]

>  <pIC50>
< 4.60

$$$$
>  <molecule>
CN1CCC(NCC(O)c2cccc(OCc3ccccc3)c2)CC1 (centres unmarked) [DDD01079164]

>  <pIC50>
< 4.60

$$$$
>  <molecule>
CN(Cc1cccc(F)c1)C(=O)CS(=O)(=O)Cc1c(Cl)cccc1Cl [DDD01077188]

>  <pIC50>
< 4.90

$$$$
>  <molecule>
CCOc1ccc2ccccc2c1CNCC1CCNCC1.Cl.Cl [DDD01255740]

>  <pIC50>
< 4.90

$$$$
>  <molecule>
Cc1ccc(S(=O)(=O)NCC2(O)CCOc3ccccc32)s1 (centres unmarked) [DDD01028074]

>  <pIC50>
6.54

$$$$
>  <molecule>
Cc1cc(C)c(CNCC(O)c2ccc(F)c(F)c2)c(C)c1.Cl (centres unmarked) [DDD01065539]

>  <pIC50>
< 4.90

$$$$
>  <molecule>
OC1(CN2CCC(Oc3cccc(C(F)(F)F)c3)CC2)CCNC1 (centres unmarked) [DDD01245291]

>  <pIC50>
< 4.60

$$$$
>  <molecule>
O=S(=O)(NCC1(O)CCOc2ccccc21)c1cccs1 (centres unmarked) [DDD01035879]

>  <pIC50>
6.54

$$$$
>  <molecule>
Cc1ccc(-c2cc(C(=O)NCCC3=CCCCC3)[nH]n2)o1 [DDD01255968]

>  <pIC50>
< 4.90

$$$$
>  <molecule>
CCCn1nccc1C(=O)N1CCN(C2CCc3ccccc3C2)CC1 (centres unmarked) [DDD01251134]

>  <pIC50>
< 4.90

$$$$
>  <molecule>
O=S(=O)(NCC1(O)CCOc2ccccc21)c1ccccc1Br (centres unmarked) [DDD01028076]

>  <pIC50>
6.66

$$$$
>  <molecule>
CC(C)CN1CCn2nc(CNc3ncnc4[nH]ccc34)cc2C1 [DDD01249504]

>  <pIC50>
< 4.60

$$$$
>  <molecule>
CC(=O)c1c(C)nn(CC(=O)Nc2ccc(Br)cc2)c1C [DDD01027599]

>  <pIC50>
< 4.90

$$$$
>  <molecule>
Cc1nn(C)c(Oc2ccc(Cl)cc2)c1CN1CCC(CN)C1 (centres unmarked) [DDD01254274]

>  <pIC50>
< 4.60

$$$$
>  <molecule>
CCc1ccc(C2c3nc[nH]c3CCN2Cc2nccn2CC)nc1 (centres unmarked) [DDD01254473]

>  <pIC50>
< 4.90

$$$$
>  <molecule>
CNc1cc(C)nc(NC2CCCN(C3Cc4ccccc4C3)C2)n1 (centres unmarked) [DDD01243506]

>  <pIC50>
< 4.90

$$$$
>  <molecule>
O=S(=O)(NCC1(O)CCOc2ccccc21)c1ccccc1F (centres unmarked) [DDD01028073]

>  <pIC50>
6.52

$$$$
>  <molecule>
COc1cccc(-n2ccc3nc(N4CCCC4)ncc3c2=O)c1 [DDD01034957]

>  <pIC50>
< 4.90

$$$$
>  <molecule>
CCn1ncc(Br)c1CN(C)S(=O)(=O)c1ccc(C)cc1 [DDD01259521]

>  <pIC50>
< 4.90

$$$$
>  <molecule>
O=S(=O)(NCC1(O)CCOc2ccccc21)c1ccc(Br)s1 (centres unmarked) [DDD01035881]

>  <pIC50>
6.96

$$$$

###

The following compounds are shown together with reported IC50 values.
# Tested on: P. falciparum stage V female gametocytes (female gamete formation)
# assay_info: P. falciparum dual gamete formation assay (Pf DGFA), female readout (Pfs25 expression), 48 h carry-over format
# Format: cell-based, Plasmodium falciparum NF54
# details: Plasmodium falciparum, 48h preincubation/carry-over; read-out: Pf DGFA Female IC50

>  <compound>
CC(C)CN1CCn2nc(CNc3ncnc4[nH]ccc34)cc2C1

>  <IC50>
> 25 µM

$$$$
>  <compound>
CNc1cc(C)nc(NC2CCCN(C3Cc4ccccc4C3)C2)n1 (stereo not drawn)

>  <IC50>
> 12.5 µM

$$$$
>  <compound>
CN1CCC(NCC(O)c2cccc(OCc3ccccc3)c2)CC1 (stereo not drawn)

>  <IC50>
3.12 µM

$$$$
>  <compound>
CCOc1ccc2ccccc2c1CNCC1CCNCC1.Cl.Cl

>  <IC50>
1.88 µM

$$$$
>  <compound>
O=S(=O)(NCC1(O)CCOc2ccccc21)c1ccc(Br)s1 (stereo not drawn)

>  <IC50>
> 12.5 µM

$$$$
>  <compound>
CC(c1ccco1)N(C(=O)CNc1ccc(C#N)cc1)C1CC1 (stereo not drawn)

>  <IC50>
> 12.5 µM

$$$$
>  <compound>
Cc1ccc(-c2cc(C(=O)NCCC3=CCCCC3)[nH]n2)o1

>  <IC50>
> 12.5 µM

$$$$
>  <compound>
Cc1nn(C)c(Oc2ccc(Cl)cc2)c1CN1CCC(CN)C1 (stereo not drawn)

>  <IC50>
> 25 µM

$$$$
>  <compound>
CCc1ccc(C2c3nc[nH]c3CCN2Cc2nccn2CC)nc1 (stereo not drawn)

>  <IC50>
0.167 µM

$$$$
>  <compound>
Cc1ccc(S(=O)(=O)NCC2(O)CCOc3ccccc32)s1 (stereo not drawn)

>  <IC50>
> 12.5 µM

$$$$
>  <compound>
CCCn1nccc1C(=O)N1CCN(C2CCc3ccccc3C2)CC1 (stereo not drawn)

>  <IC50>
> 12.5 µM

$$$$
>  <compound>
Cc1cccc(NC(=O)c2cccc(OCc3nnnn3C)c2)n1

>  <IC50>
> 12.5 µM

$$$$
>  <compound>
CC(NCC1CCN(CCO)CC1)c1ccc(OC(F)(F)F)cc1 (stereo not drawn)

>  <IC50>
4.12 µM

$$$$
>  <compound>
Cc1cc(C)c(CNCC(O)c2ccc(F)c(F)c2)c(C)c1.Cl (stereo not drawn)

>  <IC50>
> 12.5 µM

$$$$
>  <compound>
Cc1ccc(CN(c2cc(C)nc3nc(C(F)(F)F)nn23)C2CC2)cc1

>  <IC50>
> 12.5 µM

$$$$
